test_target: HLA-A*02:01 molecule (UniProt P01899+P04439, D140Y/D185E/D98H/E176V/G131W/I119V/I121R/I166T/N151K/N90K/Q86G/Q94H/R138H/R169H)
protocol_summary: cell-based
Format: binding, human
experimental_parameters: SD
pEC50: −log10 of the molar value. Ends that are not written are not given here.
Classification field: enter Condition met for pEC50 values not below 5, Condition not met for values below it.

KTLQPVSEL [pp1a-881] = Condition not met
VLVPHVGEI [pp1a-106] = Condition not met

Is it the case that ALLSDLQDL [pp1a-4183] has pEC50 reaching or exceeding 5? Condition not met

Is it the case that VLLSMQGAV [pp1a-3917] has pEC50 reaching or exceeding 5? Condition not met

---

test_target: HLA-A*02:01 molecule (UniProt P01899+P04439, D140Y/D185E/D98H/E176V/G131W/I119V/I121R/I166T/N151K/N90K/Q86G/Q94H/R138H/R169H)
protocol_summary: cell-based
Type: binding, human
experimental_parameters: SD
Ends that are not written are not given here.
property_measured: pEC50
Lab note: report pEC50 as minus log10 of the concentration in molar units, number only.

# annotated cases, reported pEC50 shown
SMWALIISV [pp1a-3732] = 5.05
YLNSTNVTI [pp1a-2270] = 5.05
YLATALLTL [pp1a-1675] = 5.08
KLNEEIAII [pp1a-468] = 4.25
FLLNKEMYL [pp1a-3183] = 4.89

Any idea what pEC50 was measured for MLFTMLRKL [pp1a-4032] ? 3.78

Any idea what pEC50 was measured for TLGVLVPHV [pp1a-103] ? 5.89

Any idea what pEC50 was measured for YITGGVVQL [pp1a-600] ? 4.31

Any idea what pEC50 was measured for TLMNVLTLV [pp1a-3710] ? 5.70

Any idea what pEC50 was measured for FLNGSCGSV [pp1a-3403] ? 4.73

Any idea what pEC50 was measured for IIWFLLLSV [pp1a-2230] ? 3.75

Any idea what pEC50 was measured for TLGVYDYLV [pp1a-3807] ? 4.21
